Tested on: Plasmopara viticola
Assay: Plasmopara test (grapevines)/preventive
Assay type: in vivo
Conditions: preventive spray, 10 ppm of active ingredient, evaluated 6 days after inoculation
property name: Eff. %
# output: number + unit

Some solved cases for reference:
molecule="CCCC(C)(C)OC(=O)Nc1cccc(CO/N=C(/c2ccccc2)c2noc(=O)n2C)n1 [Example 233]" property_name="Eff. %" val=78%
molecule="Cn1c(/C(=N\\OCc2cccc(NC(=O)c3cccc(I)c3)n2)c2ccccc2)noc1=O [Example 281]" property_name="Eff. %" val=97%
molecule="Cn1c(/C(=N\\OCc2cccc(NC(=O)OCc3ccccc3)n2)c2ccccc2)noc1=O [Example 168]" property_name="Eff. %" val=100%

Answer with the recorded Eff. % of CCCCC(=O)Nc1cccc(CO/N=C(/c2cccc(F)c2)c2noc(=O)n2C)n1 [Example 140] only.
85%
